- TEST DETAILS: Partition coefficient (logP) of the compound
- Format: physicochemical
MEASURED PARAMETER: logP

CS(=O)(=O)c1cccc2c1[n+]([O-])nc(N)[n+]2[O-]: -1.38
[O-][n+]1nc(Nc2ccccc2)[n+]([O-])c2ccccc21: 1.43

P. Nc1n[n+]([O-])c2c(Cl)cccc2[n+]1[O-]
Q. CS(=O)(=O)c1ccc2c(c1)[n+]([O-])nc(N)[n+]2[O-]
Qu. Endpoint returns the identifier whose logP is numerically larger, either P or Q . Kindly state the label of the option you pick.
Ans. P
(P: 0.166, Q: -1.15)

---

- TEST DETAILS: Partition coefficient (logP) of the compound
- Assay type: physicochemical
MEASURED PARAMETER: logP

Here is how some compounds turned out for logP.
Nc1n[n+]([O-])c2cc(Cl)ccc2[n+]1[O-]: 0.441
CCN(CC)c1cccc2c1[n+]([O-])nc(N)[n+]2[O-]: 0.83
Nc1n[n+]([O-])c2cccc(Cl)c2[n+]1[O-]: -0.102
Cc1cccc2c1[n+]([O-])nc(N)[n+]2[O-]: 0.24

P. COCCc1cccc(Nc2n[n+]([O-])c3ccccc3[n+]2[O-])c1
Q. NC(N)=O
Qu. Between the entries labeled P and Q , whose measured logP is lower? Kindly state the label of the option you pick.
Ans. Q
